# System: Human immunodeficiency virus 1
# test.details: Antiviral activity against HIV1 in HEK293T cells
# Type: functional, organism-based
# experimental.parameters: Human immunodeficiency virus 1, HEK-293T
measured.quantity: EC50 (nM)

Example results:
{"columns": ["structure.smiles.string", "display.unit", "result.number"],
 "data": [
  ["COC(=O)c1cc(OC)cc(OC)c1[C@H]1C[C@]12C(=O)Nc1ccc(Cl)cc12", "nM", 167],
  ["O=C1Nc2ccc(Cl)cc2[C@@]12C[C@@H]2c1ccc2ccccc2n1", "nM", 10],
  ["O=C1Nc2ccc(Cl)cc2[C@@]12C[C@@H]2c1ccc2c(O)cccc2n1", "nM", 587],
  ["O=C1Nc2ccc(Cl)cc2[C@@]12C[C@@H]2c1ccccc1", "nM", 244],
  ["O=C1Nc2ccc(Cl)cc2[C@@]12C[C@@H]2c1cc(Br)cs1", "nM", 1270]
]}

1. Cc1ccsc1[C@H]1C[C@]12C(=O)Nc1ccc(Cl)cc12
2. O=C1Nc2ccc(Cl)cc2[C@@]12C[C@@H]2c1ccc(Br)o1
Which is greater in EC50, the first item 1 or the second item 2 ? Refer to your chosen entry by its label in the reply.
1
(1: 844 nM, 2: 245 nM)

I. O=C1Nc2ccc(Cl)cc2[C@@]12C[C@@H]2c1cc2ccccc2s1
II. O=C1Nc2ccc(Cl)cc2[C@@]12C[C@@H]2c1ccc(Br)cn1
I'm curious, which of these has a smaller EC50 number: I or II ? # answer = label of selected item
II
(II: 23 nM, I: 4970 nM)

P. O=C1Nc2ccc(Cl)cc2[C@@]12C[C@@H]2c1ccco1
Q. Cc1ccc([C@H]2C[C@]23C(=O)Nc2ccc(Cl)cc23)o1
Looking at recorded values for EC50, does P or Q come in lower? Your answer should be the label of the entry you select.
Q

A. Cn1cccc1-c1cccc([C@H]2C[C@]23C(=O)Nc2ccc(Cl)cc23)n1
B. CC(=O)/C=C/c1cccc([C@H]2C[C@]23C(=O)Nc2ccc(Cl)cc23)n1
Exercise: compare A and B ; which one has the greater EC50? State the label of the item chosen.
B

P. O=C1Nc2ccc(Cl)cc2[C@@]12C[C@@H]2c1cccc(-c2ccccn2)n1
Q. CC1(C)[C@H](c2cccc(Br)n2)[C@@]12C(=O)Nc1ccc(Cl)cc12
Which of the two items, P and Q , has the greater recorded EC50? Mark your answer with the label of the selected entry.
P
(P: 504 nM, Q: 28 nM)
